Data credit: a melting point compilation (Tetko et al.; mined from patent text by program, amines drawn as free bases though some values may be those of a salt)

Reported melting point values for a set of compounds
endpoint: melting point

[[record]]
compound = "Cc1cccc(-c2n[nH]cc2-c2ccc(F)c(-c3cn(CCO)cn3)c2)n1"
endpoint = "melting point"
result = "248 °C"

[[record]]
compound = "CCOC(=O)C1=C(C)NC(N)=C(C(=O)OCC)C1C (stereo not drawn)"
endpoint = "melting point"
result = "140 °C"

[[record]]
compound = "O=C(N[C@H](Cc1ccc(C(F)(F)F)o1)[C@@H](O)c1ccc(F)cc1)c1ccc(F)c2ccccc12 (racemic)"
endpoint = "melting point"
result = "153 to 154 °C"

[[record]]
compound = "Nc1nc(Cl)c(Cl)nc1CO"
endpoint = "melting point"
result = "174 to 176 °C"

[[record]]
compound = "CCOC(=O)C1=C(C)NC(c2nccn2Cc2ccccc2)=NC1c1ccc(F)cc1Cl (stereo not drawn)"
endpoint = "melting point"
result = "114 to 117 °C"

[[record]]
compound = "CN1CCC(OC2c3ccccc3CCn3c2nc(-c2ccccc2)c3-c2ccccc2)CC1 (stereo not drawn)"
endpoint = "melting point"
result = "90 °C"

[[record]]
compound = "CC(C)(C)OC(=O)CN(C(=O)CNC(=O)Nc1ccc(Cl)cc1)c1ccccc1C(=O)c1ccccc1"
endpoint = "melting point"
result = "196 to 197 °C"

[[record]]
compound = "COc1ccc(C(=O)c2cc3ccncc3[nH]2)cc1"
endpoint = "melting point"
result = "225 to 228 °C"

[[record]]
compound = "CC(=O)Nc1ccc2c(c1)CC(N(C)C)C2 (stereo not drawn)"
endpoint = "melting point"
result = "94 to 96 °C"

[[record]]
compound = "O=C1C=CC(O)(c2ccc(OCCCCl)cc2)O1 (stereo not drawn)"
endpoint = "melting point"
result = "219 to 220 °C"

[[record]]
compound = "Cc1nc(Cc2ccc([N+](=O)[O-])cc2)sc1C"
endpoint = "melting point"
result = "93 to 94 °C"

[[record]]
compound = "CCc1cc(Cl)n2nccc2n1"
endpoint = "melting point"
result = "66 to 68 °C"

[[record]]
compound = "COCc1ccc2c(c1S(N)(=O)=O)S(=O)(=O)C(C)C2 (stereo not drawn)"
endpoint = "melting point"
result = "115 °C"

[[record]]
compound = "CCC(=O)NCCC1CCc2cc(Br)c3c(c21)C=CCO3 (stereo not drawn)"
endpoint = "melting point"
result = "110 to 111 °C"

[[record]]
compound = "CSCCC(=O)N(C)c1cnc(-c2cccnc2)s1"
endpoint = "melting point"
result = "116 to 118 °C"

[[record]]
compound = "CC(C)(C(=O)c1ccccc1)S(=O)(=O)c1ccccc1"
endpoint = "melting point"
result = "70 °C"

[[record]]
compound = "CC(C)(C)c1cc(C(=O)c2ccsc2)cc2c1OCC2(C)C"
endpoint = "melting point"
result = "89 to 90 °C"

[[record]]
compound = "CC(C)(C)OC(=O)NC1CCCCCC=CC2CC2(C(=O)NS(=O)(=O)C2CC2)NC(=O)C2CC(OC(=O)c3ccc(CC(=O)O)cc3)CN2C1=O (stereo not drawn)"
endpoint = "melting point"
result = "154 to 156 °C"


====

Below is a list of entries, each paired with its recorded melting point value.
endpoint: melting point

[[record]]
molecule = "O=C(Nc1ccc2[nH]c(=O)c(=O)[nH]c2c1)C(F)(F)F"
result = "> 330 °C"

[[record]]
molecule = "CCCCCCCCCCCCCCCCCCCCCCOc1ccc(C(=O)OCC)cc1"
result = "56.5 to 59.5 °C"

[[record]]
molecule = "CN1C(=O)C(C(=O)Nc2ccc(F)cc2)S(=O)(=O)c2ccccc21 (stereo unspecified)"
result = "189 to 192 °C"

[[record]]
molecule = "Nc1ccc2oc3ccc(OC(F)F)c(C(=O)Nc4c(Cl)cncc4Cl)c3c2c1"
result = "> 270 °C"

[[record]]
molecule = "Cc1cc(Cl)ccc1Cn1nc(OC(C)C)cc1CCCOc1nn(Cc2ccccc2)cc1CC(=O)O"
result = "81 to 82 °C"

[[record]]
molecule = "Cc1ncc(CN2CCN(c3ccccc3C)CC2)c(N)n1"
result = "189 to 190 °C"

[[record]]
molecule = "CC(C)(C)c1cc(I)c2c(c1)CNC1(O2)C2CC3CC(C2)CC1C3 (stereo unspecified)"
result = "162 to 164 °C"

[[record]]
molecule = "Nc1nc(-c2ccncc2)nc2[nH]c(S)nc12"
result = "> 330 °C"

[[record]]
molecule = "CCCCCCc1oc(C=Cc2ccccc2)nc1CO"
result = "44 to 45 °C"

[[record]]
molecule = "CCCCc1oc2ccc(C(N)=O)cc2c1C(=O)c1ccc(OCCCN(CCCC)CCCC)cc1"
result = "90 to 92 °C"

[[record]]
molecule = "N=C(Nc1ccc(CCCC(=O)Nc2ccccc2)cc1)c1cccs1"
result = "229 to 231 °C"

[[record]]
molecule = "COc1cc(C=O)cc(OCCCC(=O)O)c1OC"
result = "90 to 92 °C"

[[record]]
molecule = "CCN1C(=O)C(C)(C)C(=O)N(C)c2cc(CN(CCn3ccc4oc(C)cc4c3=O)Cc3ccnn3C)ccc21"
result = "128 to 131 °C"

[[record]]
molecule = "CCCCn1c(=O)n(CCCCC(C)=O)c(=O)c2c1ncn2CC(C)=O"
result = "87 °C"

[[record]]
molecule = "CCOC(=O)c1c(S(C)=O)n(C2CC2)c2cc(F)c(F)cc2c1=O (stereo unspecified)"
result = "207 °C"

[[record]]
molecule = "OCC1OC(n2cnc3c(NCC(c4ccc(Cl)cc4)c4ccc(Cl)cc4)ncnc32)C(O)C1O (stereo unspecified)"
result = "95 to 120 °C"

